Assay: chemical genetic growth profiling, strain panel (AID 1159580);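 note: tested at 20 µM; growth read once vehicle control cultures reached saturation at 30 °C; 1 = growth at the plate median or of vehicle wells; lower values mean less growth of the strain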
Conditions: S. cerevisiae deletion strains, growth OD, locus YOL012C, strain htz1
Out of some 5,500 compounds screened, about 2,000 (36%) were called active. Inconclusive results (about 18%) are left out. Cut-off read from the data, not from the text of the source: active = normalized growth mostly below about 0.91 (no sharp cut-off); inconclusive = no clear call, values can overlap the other calls; inactive = mostly above about 0.92. The list shows a part of the results.
API: response.call in class 1 = active, class 0 = inactive

**Q:** Just curious, what result did COc1c(C)c2c(c(O)c1C/C=C(\C)CCC(=O)O)C(=O)OC2 get here?
**A:** class 0

**Q:** Kindly provide the recorded test outcome for the following molecule: CN1CCC[C@@H]1CCO[C@](C)(c1ccccc1)c1ccc(Cl)cc1
**A:** class 0

====

Test: chemical genetic growth profiling, strain panel (AID 1159580);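 note: tested at 20 µM; growth read once vehicle control cultures reached saturation at 30 °C; 1 = growth at the plate median or of vehicle wells; lower values mean less growth of the strain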
Details: S. cerevisiae deletion strains, growth OD, locus YHR142W, strain chs7, stronger effect = lower value
Out of some 5,500 compounds screened, about 2,000 (36%) were called active. About 18% were inconclusive and are not listed. The list shows a part of the results.
Measurement kind: normalized growth
Answer with a number only.

# count of solved cases: 5
1. CC(C)/C(O)=C1/C(=O)O[C@@H](c2ccoc2)[C@]2(C)C(O)[C@@H](O)[C@@]34OC5(C)OC67CC(C)(C(O)[C@]6(O)[C@@H](O)[C@]3(O5)C12)[C@H](CC(=O)O)[C@]74C (some centres not stated)	0.945
2. COc1ccc2nc(S(=O)Cc3ncc(C)c(OC)c3C)[nH]c2c1 (configuration not stated)	1.01
3. COC(=O)[C@@H]1OC(=O)C2OC23[C@@]1(C)CCC1[C@]2(C)C(C[C@@H](O)[C@]13C)C(C)(C)[C@H](OC(C)=O)C[C@@H]2OC(C)=O (some centres not stated)	1
4. COC[C@]12CN(C=O)C3[C@@H]4[C@H](OC)C1[C@]3(C1CC3(O)C(OC)C(O)C4(OC(C)=O)C1C3OC(=O)c1ccccc1)[C@@H](OC)C[C@H]2O (some centres not stated)	0.999
5. COc1ccc2oc3ccccc3c(=O)c2c1	0.688

**Q:** Hello, please tell me recorded normalized growth for this one: COc1ccc2c(c1)OCC(Cc1ccc(O)c(OC)c1)C2=O (configuration not stated)
**A:** 0.943

**Q:** Let me know recorded normalized growth for CCCCCCCCCCCCCC(=O)OC1C(C)C2(O)C(C=C(CO)CC3(O)C(=O)C(C)=CC32)C2C(C)(C)C12OC(C)=O (configuration not stated) , thanks.
**A:** 0.952

====

Assay: chemical genetic growth profiling, strain panel (AID 1159580);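 note: tested at 20 µM; growth read once vehicle control cultures reached saturation at 30 °C; 1 = growth at the plate median or of vehicle wells; lower values mean less growth of the strain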
Settings: S. cerevisiae deletion strains, growth OD, locus YBR023C, strain chs3, stronger effect = lower value
Out of some 5,500 compounds screened, about 2,000 (36%) were called active. Inconclusive results (about 18%) are left out. The list shows a part of the results.
Measurement kind: normalized growth

Below: 8 compounds and their reported normalized growth.
1. C[C@]12CCC3c4ccc(O)cc4CCC3C1CCC2=O (stereo not given in full)	1.01 (inactive)
2. CC12CCC3C(=CCc4cc(O)ccc43)C1CCC2=O (stereo not given)	0.974 (inactive)
3. C[C@H]1C[C@@H](O)[C@]2(O)[C@@]13CC(=O)OC[C@@]2(C)[C@](C)(O)C(=O)C3	1.03 (inactive)
4. CC(=O)Oc1ccc2c(c1)CCC1C2CC[C@]2(C)C(=O)CCC12 (stereo not given in full)	0.985 (inactive)
5. Nc1nc(F)nc2c1ncn2[C@@H]1O[C@H](COP(=O)(O)O)[C@@H](O)[C@@H]1O	0.999 (inactive)
6. O=NN(CCCl)C(=O)NCCCl	0.942 (inactive)
7. COC[C@]12CN(C=O)C3[C@@H]4[C@H](OC)C1[C@]3(C1CC3(O)C(OC)C(O)C4(OC(C)=O)C1C3OC(=O)c1ccccc1)[C@@H](OC)C[C@H]2O (stereo not given in full)	1.01 (inactive)
8. CCCCC(=O)O[C@]1(C(=O)CO)CCC2C3CCC4=CC(=O)CC[C@]4(C)C3[C@@H](O)C[C@@]21C (stereo not given in full)	0.987 (inactive)

**Q:** Return normalized growth (reported value) for this compound: C1N2CN3CN1CN(C2)C3
**A:** 0.984 (inactive)

**Q:** // fetch normalized growth given entry C[C@]12CCC3c4ccc(OC(=O)c5ccccc5)cc4CCC3C1CCC2=O (stereo not given in full)
**A:** 0.984 (inactive)
